system: Anura; assay: Displacement of (-)-[3H]alprenolol from adrenergic receptor purified from frog erythrocytes
Reported pKb values for the following compounds.
parameterMeasured: pKb

{"columns": ["compound", "testSystem", "endpointValue"],
 "data": [
  ["NCCc1ccc(O)cc1", "Anura", "< 3.7"],
  ["NCC(O)c1ccc(O)cc1 (stereo not drawn)", "Anura", "< 3.7"],
  ["NC[C@H](O)c1ccc(O)c(O)c1", "Anura", "< 3.7"]
]}
